Test: Direct MG-trapping activity by HPLC
Conditions: against methylglyoxal
READOUT_KIND: EC50 (µM)
I only need the number, in µM, no unit after it.

Enquiry: Note down EC50 recorded for O=C1C[C@@H](c2ccccc2)Oc2cc(O)cc(O)c21
Return: 63.2

###

Target: rat intestinal maltase
Assay: α-Glucosidase inhibitory activity and kinetic study, maltase
Conditions: rat intestinal maltase, substrate maltose; read-out: IC50 against maltase
READOUT_KIND: IC50

Enquiry: Note down IC50 recorded for O=C1C[C@@H](c2ccccc2)Oc2cc(O)cc(O)c21
Return: 350 µM

###

Target: rat intestinal sucrase (Rattus norvegicus, UniProt P23739)
Construct: a crude enzyme solution, was prepared from rat intestinal acetone powder; from tissue; host or cells: rat intestine (acetone powder, crude extract)
Sequence (P23739 whole entry): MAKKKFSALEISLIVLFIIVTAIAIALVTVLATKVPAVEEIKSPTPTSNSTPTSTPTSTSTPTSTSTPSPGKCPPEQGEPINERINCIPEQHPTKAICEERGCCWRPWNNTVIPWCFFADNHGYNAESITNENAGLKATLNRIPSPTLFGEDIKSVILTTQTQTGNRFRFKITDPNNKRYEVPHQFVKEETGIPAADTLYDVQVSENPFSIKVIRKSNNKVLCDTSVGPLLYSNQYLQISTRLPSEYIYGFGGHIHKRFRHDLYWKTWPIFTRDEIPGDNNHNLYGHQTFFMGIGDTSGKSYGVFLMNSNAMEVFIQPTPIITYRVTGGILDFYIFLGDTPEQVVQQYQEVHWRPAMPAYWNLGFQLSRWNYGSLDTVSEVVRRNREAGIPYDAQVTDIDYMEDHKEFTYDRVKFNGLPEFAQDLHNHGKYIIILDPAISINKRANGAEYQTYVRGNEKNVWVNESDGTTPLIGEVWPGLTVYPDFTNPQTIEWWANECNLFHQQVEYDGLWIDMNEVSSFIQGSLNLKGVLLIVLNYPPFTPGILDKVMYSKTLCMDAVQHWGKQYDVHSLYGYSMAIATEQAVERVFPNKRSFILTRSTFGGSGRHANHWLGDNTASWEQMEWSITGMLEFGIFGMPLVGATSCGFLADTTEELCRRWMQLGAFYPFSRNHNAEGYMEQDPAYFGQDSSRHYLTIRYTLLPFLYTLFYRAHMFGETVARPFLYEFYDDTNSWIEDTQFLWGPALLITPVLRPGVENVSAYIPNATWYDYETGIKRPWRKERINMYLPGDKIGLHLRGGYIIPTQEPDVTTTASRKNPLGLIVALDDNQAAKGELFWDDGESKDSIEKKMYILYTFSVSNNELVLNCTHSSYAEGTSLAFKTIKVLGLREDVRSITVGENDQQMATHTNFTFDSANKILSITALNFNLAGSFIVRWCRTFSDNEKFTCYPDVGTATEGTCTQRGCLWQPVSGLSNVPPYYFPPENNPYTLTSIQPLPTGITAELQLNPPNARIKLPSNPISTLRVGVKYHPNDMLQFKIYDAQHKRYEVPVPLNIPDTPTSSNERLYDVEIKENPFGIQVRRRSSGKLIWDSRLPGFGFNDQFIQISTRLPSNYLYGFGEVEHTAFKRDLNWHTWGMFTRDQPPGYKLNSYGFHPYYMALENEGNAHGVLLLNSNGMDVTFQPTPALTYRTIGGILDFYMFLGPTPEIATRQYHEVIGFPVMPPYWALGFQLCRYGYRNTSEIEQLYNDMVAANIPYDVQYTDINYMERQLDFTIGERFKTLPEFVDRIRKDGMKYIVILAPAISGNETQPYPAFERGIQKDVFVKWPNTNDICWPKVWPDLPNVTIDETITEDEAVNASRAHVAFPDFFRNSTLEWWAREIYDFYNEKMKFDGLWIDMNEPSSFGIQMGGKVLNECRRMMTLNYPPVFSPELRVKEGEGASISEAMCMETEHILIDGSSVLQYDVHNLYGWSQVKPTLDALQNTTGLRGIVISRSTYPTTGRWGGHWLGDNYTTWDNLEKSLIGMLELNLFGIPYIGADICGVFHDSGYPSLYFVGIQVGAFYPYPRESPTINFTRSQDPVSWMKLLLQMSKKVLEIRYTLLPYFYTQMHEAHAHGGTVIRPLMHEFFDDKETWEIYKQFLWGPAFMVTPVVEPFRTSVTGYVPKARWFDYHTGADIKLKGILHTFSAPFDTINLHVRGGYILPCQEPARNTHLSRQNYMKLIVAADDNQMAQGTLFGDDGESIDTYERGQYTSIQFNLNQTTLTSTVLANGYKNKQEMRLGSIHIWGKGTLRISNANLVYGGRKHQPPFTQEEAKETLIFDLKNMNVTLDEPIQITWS
Assay: α-Glucosidase inhibitory activity and kinetic study, sucrase
Type: biochemical
Conditions: sucrase; dissociation constant of EI complex
READOUT_KIND: pKi
Keep it numeric: pKi is minus log10 of the concentration in mol/L.

Enquiry: Note down pKi recorded for O=C1C[C@@H](c2ccccc2)Oc2cc(O)cc(O)c21
Return: 4.29

###

Experiment: Direct MG-trapping activity by HPLC
Details: compound 0.1 mM, MG 0.1 mM, PBS pH 7.4, 37 °C, 24 h; HPLC of 2-MQ
READOUT_KIND: MG-trapping activity, percentage related to AG (100%)
I only need the number, in %, no unit after it.

Check out these entries, answers already filled in.
- SMILES_RECORD: "COc1cc(O)cc(O)c1C(=O)/C=C/c1ccccc1"
  UNITS_TEXT: "%"
  OBSERVED_RESULT: 28
- SMILES_RECORD: "COc1cc(/C=C/c2ccccc2)oc(=O)c1"
  UNITS_TEXT: "%"
  OBSERVED_RESULT: 23

Please turn your attention to the following entry.
Enquiry: Note down MG-trapping activity, percentage related to AG (100%) recorded for O=C1C[C@@H](c2ccccc2)Oc2cc(O)cc(O)c21
Return: 109
